target: bacterial PDF (peptide deformylase), enzyme from S. aureus (Staphylococcus aureus); test: Bacterial peptide deformylase (PDF) assay, enzyme from S. aureus; type: biochemical; settings: PDF enzyme from S. aureus; substrate f-Met-Ala; TNBS readout at 420 nm; read-out: IC50 (enzyme from S. aureus)
Sequence (P68826 whole entry): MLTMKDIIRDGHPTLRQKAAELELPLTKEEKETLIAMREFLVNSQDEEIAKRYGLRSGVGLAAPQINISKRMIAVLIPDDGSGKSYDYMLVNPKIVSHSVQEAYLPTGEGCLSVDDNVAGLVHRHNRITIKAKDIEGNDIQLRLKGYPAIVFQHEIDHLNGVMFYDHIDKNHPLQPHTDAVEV
measured-parameter: IC50 (µM)

compound="O=C(CC1CN(CC2CCCCC2)c2ccccc2S1(=O)=O)NO (centres unmarked)" reported_result=18.1
compound="O=C(CC1CNc2ccccc2S1)NO (centres unmarked)" reported_result=37.6
compound="CCN1CC(CC(=O)NO)Sc2ccccc21 (centres unmarked)" reported_result=5.6
compound="CCCCN1CC(CC(=O)NO)Sc2ccccc21 (centres unmarked)" reported_result=35.5
compound="CCN1CC(CC(=O)NO)S(=O)(=O)c2ccc(C(=O)NCc3ccc(OC(F)(F)F)cc3)cc21 (centres unmarked)" reported_result=5
